Reported inhibition values for the following compounds.
assay.target: Tyrosine-protein kinase FRK (Homo sapiens);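 further: reported percent inhibition is a mean value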
condition.description: at 1 µM
The reply should be a number in %, with the unit left off.

chem.smiles: CNC(=O)c1cncc(/C=C/c2c(Cl)cccc2Cl)c1
inhibition, %: 11
//
chem.smiles: CS(=O)(=O)Nc1ccc(N/C=C2\C(=O)Nc3ccccc32)cc1
inhibition, %: 0.76
//
chem.smiles: COc1ccc(COc2ccc(Cc3cnc(N)nc3N)cc2OC)cc1
inhibition, %: 2.07

stdin: Report inhibition for `[O-][S+]1CCN(Cc2ccc(-c3ccc4ncnc(Nc5ccc(OCc6ccccc6)c(F)c5)c4c3)o2)CC1` please.
stdout: 1.11

stdin: What would you report for `Fc1cccc(COc2ccc(Nc3ncnc4sc(-c5cccs5)cc34)cc2Cl)c1` ?
stdout: 2.35

stdin: Repeat for the following compound: `Nc1ncnc2occ(-c3ccc(NC(=O)Nc4cccc(C(F)(F)F)c4)cc3)c12`
stdout: 21.2

stdin: What do you have for `NS(=O)(=O)c1cccc(-c2ccc3c(NC(=O)C4CC4)n[nH]c3c2)c1` ?
stdout: 1.64

stdin: Same question, `Cc1ccc(C(=O)NC2CCCCC2)cc1-c1ccc(C(=O)NCC2CC2)cc1` this time
stdout: 0.68

###

Reported inhibition values follow for various compounds
assay.target: Fibroblast growth factor receptor 3 (Homo sapiens);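 further: each value is a mean percent inhibition of FGFR3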
condition.description: at 0.1 µM
Return type: number; implicit unit %.

Below: 6 compounds and their reported inhibition.
compound: COc1ccc(-c2coc3ncnc(N)c23)cc1
inhibition, %: 6.98
//
compound: NS(=O)(=O)c1cccc(-c2ccc3c(NC(=O)C4CC4)n[nH]c3c2)c1
inhibition, %: -0.12
//
compound: Fc1cccc(COc2ccc(Nc3ncnc4sc(-c5cccs5)cc34)cc2Cl)c1
inhibition, %: 0.4
//
compound: COc1cc2ncn(-c3cc(OCc4ccccc4C(F)(F)F)c(C(N)=O)s3)c2cc1OC
inhibition, %: 6.21
//
compound: NS(=O)(=O)c1ccc(N/N=C2\C(=O)Nc3ccc(C(=O)NCCc4c[nH]cn4)cc32)cc1
inhibition, %: 6.41
//
compound: CC(C)=Cc1cccc2c1/C(=N/Nc1ccc(S(N)(=O)=O)cc1)C(=O)N2
inhibition, %: 3.36

stdin: Which value of inhibition has been reported for `N#Cc1c(NC(=O)c2cccc3ccccc23)sc2c1CCCC2` in the records?
stdout: 5.84

stdin: Also check `Cn1cc(C=C2C(=O)Nc3cccnc32)c2ccccc21`
stdout: 11.2

stdin: Thanks! And `Nc1nc(-c2ccccn2)c(-c2ccc3ncccc3n2)s1` ?
stdout: 5.15

stdin: For `COc1ccc(-c2ccncc2)cc1C(N)=O` then?
stdout: 7.66

stdin: Record: `CCCN1CCC(Oc2cc(Nc3nc(Nc4cccc(F)c4C(N)=O)c4cc[nH]c4n3)c(OC)cc2Cl)CC1`
stdout: 0.52

###

assay.target: Mitogen-activated protein kinase 9 (Homo sapiens);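 further: reported figure is the mean inhibition of JNK2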
condition.description: at 1 µM
// inhibition lookup, one value per entry
Give the number; % is assumed, so skip it.

chem.smiles: CC(=O)Nc1cccc(C#Cc2cncnc2Nc2ccc(OCc3cccc(F)c3)c(Cl)c2)n1
inhibition, %: -1.17

chem.smiles: CCn1c(-c2nonc2N)nc2cnc(Oc3cccc(NC(=O)c4ccc(OCCN5CCOCC5)cc4)c3)cc21
inhibition, %: 5.85

chem.smiles: COc1cc2ncn(-c3cc(O[C@@H](C)c4ccccc4Cl)c(C(N)=O)s3)c2cc1OC
inhibition, %: 8.24

chem.smiles: COc1ccc(-c2ccncc2)cc1C(N)=O
inhibition, %: 5.45

chem.smiles: CNC(=O)c1cncc(/C=C/c2c(Cl)cccc2Cl)c1
inhibition, %: 10.1

chem.smiles: COc1ccc(COc2ccc(Cc3cnc(N)nc3N)cc2OC)cc1
inhibition, %: 0.51

Please examine the following record next.
stdin: inhibition for `COc1ccccc1Nc1ncc(-c2ccccc2)o1` ?
stdout: 3.07

###

assay.target: Testis-specific serine/threonine-protein kinase 2 (Homo sapiens);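 further: values are mean inhibition of TSSK2 activity from the GSK PKIS profiling panel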
condition.description: at 0.1 µM
Reported inhibition values for a set of molecules
Give the value, in units of %, as a plain number.

stdin: State the recorded inhibition for this entry: `CCn1c(-c2nonc2N)nc2c(C#CC(C)(C)O)nc(CN3CCCC3)cc21`
stdout: -1.26

stdin: What about `O=C1NC(=O)C(c2ccc(Cl)cc2)=C1Nc1ccc(Cl)c(C(=O)O)c1` ?
stdout: -1.44

stdin: Ok, now `Cc1ccc(NC(=O)c2ccnc(N3CCCC3)c2)cc1-c1ccc(C(=O)NCC2CC2)cc1`
stdout: 1.08

stdin: Next record, please: `CNC(=O)c1cncc(/C=C/c2c(Cl)cccc2Cl)c1`
stdout: 1.15

stdin: # iterate: `COc1cc2ncn(-c3cc(OCc4ccccc4C(F)(F)F)c(C(N)=O)s3)c2cc1OC`
stdout: 2.18

stdin: # iterate: `Fc1cccc(COc2ccc(Nc3ncnc4sc(-c5cccs5)cc34)cc2Cl)c1`
stdout: 0.22

stdin: Next molecule: `COC(=O)Nc1nc2cc(Oc3cccc(NC(=O)Nc4cc(C(F)(F)F)ccc4F)c3)ccc2[nH]1`
stdout: -0.42

stdin: Same for `CCn1c(-c2nonc2N)nc2ccncc21`
stdout: 0.59

stdin: And then `Cc1nnc(-c2ccc(C)c(-c3ccc(C(=O)Nc4cccc(C#N)c4)cc3)c2)o1` , what is it?
stdout: 1.4

###

assay.target: Fibroblast growth factor receptor 2 (Homo sapiens) (UniProt P21802)
Sequence (P21802 22-821 limits assumed): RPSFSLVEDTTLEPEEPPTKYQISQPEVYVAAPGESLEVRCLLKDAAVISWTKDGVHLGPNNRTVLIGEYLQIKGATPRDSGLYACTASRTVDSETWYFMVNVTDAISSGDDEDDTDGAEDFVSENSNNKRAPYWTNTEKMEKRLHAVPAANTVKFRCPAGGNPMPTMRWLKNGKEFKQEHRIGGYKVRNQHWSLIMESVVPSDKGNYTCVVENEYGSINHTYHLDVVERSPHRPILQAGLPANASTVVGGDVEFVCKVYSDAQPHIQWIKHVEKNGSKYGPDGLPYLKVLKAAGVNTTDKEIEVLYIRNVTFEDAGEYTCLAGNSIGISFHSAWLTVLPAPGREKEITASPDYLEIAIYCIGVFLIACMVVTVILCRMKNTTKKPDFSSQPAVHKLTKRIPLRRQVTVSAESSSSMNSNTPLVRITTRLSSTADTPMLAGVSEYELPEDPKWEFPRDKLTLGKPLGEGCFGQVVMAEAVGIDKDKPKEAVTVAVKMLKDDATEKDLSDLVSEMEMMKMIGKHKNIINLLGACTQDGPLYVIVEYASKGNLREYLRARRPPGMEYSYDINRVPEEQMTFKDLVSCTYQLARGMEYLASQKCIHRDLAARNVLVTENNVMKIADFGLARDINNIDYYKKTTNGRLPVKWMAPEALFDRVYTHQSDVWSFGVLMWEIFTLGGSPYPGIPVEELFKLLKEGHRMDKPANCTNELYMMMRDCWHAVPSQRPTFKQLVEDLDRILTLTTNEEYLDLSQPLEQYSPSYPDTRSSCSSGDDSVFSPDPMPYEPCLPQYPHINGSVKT
condition.description: at 0.1 µM
Listed here are compounds together with their documented inhibition.
Number only, in %; omit the unit.

compound: COc1ccc(COc2ccc(Cc3cnc(N)nc3N)cc2OC)cc1
inhibition / %: 1.46
//
compound: NS(=O)(=O)c1ccc(N/N=C2\C(=O)Nc3ccc(C(=O)NCCc4c[nH]cn4)cc32)cc1
inhibition / %: 7.55
//
compound: [O-][S+]1CCN(Cc2ccc(-c3ccc4ncnc(Nc5ccc(OCc6ccccc6)c(F)c5)c4c3)o2)CC1
inhibition / %: 1.34

stdin: // map `CCN1CCC(CC(=O)Nc2n[nH]c3nc(-c4cccs4)c(Br)cc23)CC1` to recorded inhibition (system: Fibroblast growth factor receptor 2 (Homo sapiens) (UniProt P21802));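 further: values are mean percent inhibition of FGFR2 kinase, measured within the GSK Published Kinase Inhibitor Set (PKIS) screening panel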
stdout: -4.3

stdin: Also check `NCc1ccc(-c2nc(-c3ccc(Cl)c(O)c3)c(-c3ccncc3)[nH]2)cc1`
stdout: -0.38

stdin: Input `CS(=O)(=O)CCNCc1ccc(-c2ccc3ncnc(Nc4ccc(OCc5cccc(F)c5)c(C(F)(F)F)c4)c3c2)o1`
stdout: 3.18

stdin: Now give it for `CCn1c(-c2nonc2N)nc2cncc(C(=O)N3CCNCC3)c21` too.
stdout: 11.8

stdin: Further, for `COc1cc(C)c(NC(=O)CN(C)C)cc1Nc1nc(Nc2cccc(F)c2C(N)=O)c2cc[nH]c2n1` ?
stdout: 0.12

###

assay.target: Casein kinase I isoform alpha (Homo sapiens);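 further: each value is a mean percent inhibition of the kinase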
condition.description: at 1 µM
Property: inhibition; scope: individual compounds
Entry rule: numbers only, all in %.

// known answers, use as guide
chem.smiles: O=C1NC(=O)C(c2cccc(Cl)c2)=C1Nc1ccc(O)c(Cl)c1
inhibition (%): 9.44
//
chem.smiles: NS(=O)(=O)c1ccc(N/N=C2\C(=O)Nc3ccc(C(=O)NCCc4c[nH]cn4)cc32)cc1
inhibition (%): 8.41
//
chem.smiles: Cc1nnc(-c2ccc(C)c(-c3ccc(C(=O)Nc4cccc(C#N)c4)cc3)c2)o1
inhibition (%): 6.82
//
chem.smiles: CCN1CCC(CC(=O)Nc2n[nH]c3nc(-c4cccs4)c(Br)cc23)CC1
inhibition (%): -0.71
//
chem.smiles: COc1ccc(COc2ccc(Cc3cnc(N)nc3N)cc2OC)cc1
inhibition (%): 0.48
//
chem.smiles: CCn1c(-c2nonc2N)nc2cnc(Oc3cccc(NC(=O)c4ccc(OCCN5CCOCC5)cc4)c3)cc21
inhibition (%): 1.31
//
chem.smiles: CCn1c(-c2nonc2N)nc2c(N3CCCC3)nccc21
inhibition (%): 0.23
//
chem.smiles: O=C(Nc1n[nH]c2nc(-c3ccco3)c(Br)cc12)C1CC1
inhibition (%): 3.16

stdin: # input compound: `CS(=O)(=O)Nc1ccc(N/C=C2\C(=O)Nc3ccccc32)cc1` ; wanted: its inhibition
stdout: 7.96

stdin: Same question, `CCCN1CCC(Oc2cc(Nc3nc(Nc4cccc(F)c4C(N)=O)c4cc[nH]c4n3)c(OC)cc2Cl)CC1` this time
stdout: 12.1

###

assay.target: MAP/microtubule affinity-regulating kinase 3 (Homo sapiens) (UniProt P27448);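 further: mean percent inhibition of MARK3 kinase activity, measured within the GSK PKIS screening panel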
Sequence (P27448 whole entry, looked up): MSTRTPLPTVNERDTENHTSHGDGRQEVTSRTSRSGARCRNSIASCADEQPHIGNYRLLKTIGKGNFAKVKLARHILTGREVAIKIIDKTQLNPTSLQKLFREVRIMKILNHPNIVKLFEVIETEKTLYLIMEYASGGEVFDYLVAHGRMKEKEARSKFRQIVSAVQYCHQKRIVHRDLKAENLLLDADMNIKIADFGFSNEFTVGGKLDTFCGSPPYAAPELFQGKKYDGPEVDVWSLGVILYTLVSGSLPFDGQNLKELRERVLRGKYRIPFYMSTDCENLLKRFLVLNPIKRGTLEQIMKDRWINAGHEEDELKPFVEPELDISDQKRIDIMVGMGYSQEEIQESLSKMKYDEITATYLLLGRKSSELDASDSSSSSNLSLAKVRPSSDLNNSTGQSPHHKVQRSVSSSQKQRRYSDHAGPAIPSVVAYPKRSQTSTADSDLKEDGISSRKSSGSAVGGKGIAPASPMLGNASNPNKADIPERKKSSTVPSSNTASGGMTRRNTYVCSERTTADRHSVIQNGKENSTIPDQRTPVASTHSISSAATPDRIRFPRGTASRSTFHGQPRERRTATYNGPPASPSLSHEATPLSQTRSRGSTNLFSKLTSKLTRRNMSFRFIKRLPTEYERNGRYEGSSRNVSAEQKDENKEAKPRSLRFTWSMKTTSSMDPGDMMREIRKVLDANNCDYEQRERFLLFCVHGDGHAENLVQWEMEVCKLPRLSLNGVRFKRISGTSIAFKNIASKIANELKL
condition.description: at 0.1 µM
measurement.type: inhibition (%)
A number alone suffices; assume %.

chem.smiles: CCn1c(-c2nonc2N)nc2cnc(Oc3cccc(NC(=O)c4ccc(OCCN5CCOCC5)cc4)c3)cc21
measurement.type: inhibition
unit.name: %
numeric.result: 0.46

chem.smiles: COc1cc(C=NNc2ncnc3c2cnn3-c2ccccc2)ccc1O
measurement.type: inhibition
unit.name: %
numeric.result: 3.21

chem.smiles: Nc1ncnc2occ(-c3ccc(NC(=O)Nc4cccc(C(F)(F)F)c4)cc3)c12
measurement.type: inhibition
unit.name: %
numeric.result: 3.75

chem.smiles: CCCN1CCC(Oc2cc(Nc3nc(Nc4cccc(F)c4C(N)=O)c4cc[nH]c4n3)c(OC)cc2Cl)CC1
measurement.type: inhibition
unit.name: %
numeric.result: -0.83

Consider the record given below.
stdin: Item `COc1ccccc1Nc1ncc(-c2ccccc2)o1` has what recorded inhibition?
stdout: 4.5
